Test system: MKL-1
assay text: qHTS assay to identify novel small-molecules to repurpose for Merkel cell carcinoma treatment (AID 1296009); also: nearly all actives have a fitted effect of over 60% in size
condition context: MCC and control cell lines, CellTiter-Glo viability, 72 h; series mostly up to 46 µM
Records with an inconclusive call do not appear. Calls of active or inactive are those of the source. Calls follow the shape of the dose curve; as a rule, active = well fitted inhibition curve with a large enough effect; inconclusive = small, poorly fitted or top-dose-only effect; inactive = flat fitted curve, though single readings scatter.
Use one of these outcomes when replying: t = active, f = inactive

Check the results log: what was the call for COCCOCC(OC)OC ? f

Check the results log: what was the call for CCCC(=O)Nc1ccc(O)c(C(C)=O)c1 ? f

Check the results log: what was the call for Oc1cccc2[nH]ccc12 ? f

Check the results log: what was the call for Cc1ccccc1C(=O)N1CC/C(=N\OS(=O)(=O)O)c2ccc(Cl)cc21 ? f

Check the results log: what was the call for CCn1ccc(NS(=O)(=O)c2ccc(N)cc2)nc1=O ? f

Check the results log: what was the call for CN1CC(=O)N2[C@H](c3ccc4c(c3)OCO4)c3[nH]c4ccccc4c3C[C@@H]2C1=O ? f

Check the results log: what was the call for C[C@@]12CCC[C@H]1[C@@H]1CC[C@H]3C[C@@H](O)CC[C@]3(C)[C@H]1CC2 ? f

Check the results log: what was the call for C[C@H]1C[C@H](O)c2ccsc2S1(=O)=O ? f

Check the results log: what was the call for CCOc1ccc(NS(=O)(=O)c2ccc(N)cc2)nn1 ? f

Check the results log: what was the call for COc1cc2c(cc1OC)CN(C(=O)[C@H](C)N[C@@H](CCc1ccccc1)C(=O)O)[C@H](C(=O)O)C2 ? f

Check the results log: what was the call for CCCOc1ccc2c(c1)CC[C@@H]1[C@@H]2CC[C@]2(C)C(OC)CC[C@@H]12 (stereo not given in full) ? f

Check the results log: what was the call for CC(C)NC(=O)c1ccc(C=O)cc1 ? f

Check the results log: what was the call for Cc1ccccc1N1CCN(CCc2nnc3n2CCCC3)CC1 ? f

Check the results log: what was the call for N#Cc1cc(NC(=O)C(=O)O)c(Cl)c(NC(=O)C(=O)O)c1 ? f

Check the results log: what was the call for CCN1CCCC1CN (stereo not given) ? f

Check the results log: what was the call for Oc1ccccc1 ? f

Check the results log: what was the call for C[C@H]1C[C@H]2[C@@H]3CCC4=CC(=O)C=C[C@]4(C)[C@H]3C(=O)C[C@]2(C)[C@@]1(O)C(=O)CO ? f

Check the results log: what was the call for CCCc1ccc(OCC(=O)N2CCN(C(=O)COc3ccc(CCC)cc3OC)CC2)c(OC)c1 ? f

Check the results log: what was the call for CC(C)OC(=O)c1cc2c(OCC(O)CNC(C)(C)C)cccc2[nH]1 (stereo not given) ? f

Check the results log: what was the call for Nc1c[n+](N2CCOCC2)no1 ? f

Check the results log: what was the call for Cn1cc(S(C)=O)c(=O)c2ccc(F)cc21 (stereo not given) ? f

Check the results log: what was the call for CC(C)C[C@@H]1[C@H](c2ccccc2)OC(=O)N1CCCN1CCCCCC1 ? f

Check the results log: what was the call for C[C@@H]1C[C@H]2[C@@H]3CCC4=CC(=O)C=C[C@]4(C)[C@@]3(F)[C@@H](O)C[C@]2(C)[C@@]1(O)C(=O)COC(=O)c1ccncc1 ? f

Check the results log: what was the call for O=[N+]([O-])c1cncn1CCN1CCOCC1 ? f

Check the results log: what was the call for CCCC(=O)O[C@]1(C(=O)COC(=O)CC)CC[C@H]2[C@@H]3CCC4=CC(=O)CC[C@]4(C)[C@H]3[C@@H](O)C[C@@]21C ? f

Check the results log: what was the call for COc1cc(OC)nc(O[C@H](C(=O)O)C(OC)(c2ccccc2)c2ccccc2)n1 ? f

Check the results log: what was the call for COc1cc(C=O)ccc1O ? f

Check the results log: what was the call for NS(=O)(=O)c1ccc(N2CCCCS2(=O)=O)cc1 ? f

Check the results log: what was the call for CC(C)(C)C1CCC(CC2=C(O)c3ccccc3C(=O)C2=O)CC1 (stereo not given) ? f

Check the results log: what was the call for Nc1ncnc2nc[nH]c12 ? f

Check the results log: what was the call for O=C(Oc1ccccc1)c1ccccc1O ? f

Check the results log: what was the call for CC1(C)O[C@@H]2C[C@H]3[C@@H]4C[C@H](F)C5=CC(=O)C=C[C@]5(C)[C@@]4(F)[C@@H](O)C[C@]3(C)[C@]2(C(=O)CO)O1 ? f

Check the results log: what was the call for CC(=O)[C@@]1(O)CC[C@H]2[C@@H]3C[C@H](C)C4=CC(=O)CC[C@]4(C)[C@H]3CC[C@@]21C ? f

Check the results log: what was the call for CC1(C)S[C@@H]2[C@H](NC(=O)C(c3ccccc3)S(=O)(=O)O)C(=O)N2[C@H]1C(=O)O (stereo not given in full) ? f

Check the results log: what was the call for CC(C)C(=O)OCc1cccc(OC(=O)[C@@H]2N3C(=O)[C@@H](NC(=O)Cc4ccccc4)[C@H]3SC2(C)C)c1 ? f

Check the results log: what was the call for O=C(O)c1ccccc1S ? f

Check the results log: what was the call for O=S(=O)(O)c1ccc2nc(-c3ccccc3)[nH]c2c1 ? f

Check the results log: what was the call for CC(=O)N[C@@H](CCC(N)=O)C(=O)O ? f

Check the results log: what was the call for CC(C)(C)c1ccc(O)c(O)c1 ? t

Check the results log: what was the call for O=C(CCCl)NCc1ccccc1 ? f

Check the results log: what was the call for C[N+]1(CC2COC(c3ccccc3)(c3ccccc3)O2)CCCCC1 (stereo not given) ? f

Check the results log: what was the call for CCOC(=O)OCC/C(SC(=O)OCC)=C(\C)N(C=O)Cc1cnc(C)nc1N ? f

Check the results log: what was the call for Cc1cccc(N(C)C(=S)Oc2ccc3c(c2)C2CCC3C2)c1 (stereo not given) ? f

Check the results log: what was the call for CC1CC(=O)NN=C1c1ccc(NCC(C)(C)NCC(O)COc2cc(Cl)ccc2C#N)cc1 (stereo not given) ? f

Check the results log: what was the call for CC(=O)N(CC(O)CO)c1c(I)c(C(=O)NCCO)c(I)c(C(=O)NCC(O)CO)c1I (stereo not given) ? f

====

assay text: qHTS of pediatric cancer cell lines to identify multiple opportunities for drug repurposing: Primary screen for NB-EBc1 cells (AID 1347095)
condition context: NB-EBc1 neuroblastoma viability, CellTiter-Glo luminescence, 48 h; series mostly up to 46 µM
Results filed as inconclusive are left out. Active and inactive are the calls of the source. Calls follow the shape of the dose curve; as a rule, active = well fitted cell-killing curve with a large enough effect; inconclusive = small, poorly fitted or top-dose-only effect; inactive = no such curve, though single readings can be large or run the other way.
Use one of these outcomes when replying: TRUE (active), FALSE (inactive)

Check the results log: what was the call for O=C(c1ccccc1)c1ccccc1 ? FALSE

Check the results log: what was the call for CCN1C(=O)c2ccccc2C1Nc1ccc(OCCN2CCCCC2)cc1 (stereo not drawn) ? FALSE

Check the results log: what was the call for CCOC(=O)Oc1ccc(CCNC(=O)[C@H](CCSC)NC(C)=O)cc1OC(=O)OCC ? FALSE

Check the results log: what was the call for CCCOc1ccc2c(c1)CC[C@@H]1[C@@H]2CC[C@]2(C)C(OC)CC[C@@H]12 (stereo partly drawn) ? FALSE

Check the results log: what was the call for CNC(=O)c1c(I)c(NC(C)=O)c(I)c(C(=O)O)c1I ? FALSE

Check the results log: what was the call for Cc1ccccc1C(=O)N1CC/C(=N\OS(=O)(=O)O)c2ccc(Cl)cc21 ? FALSE

Check the results log: what was the call for CCCCCC[C@@H](CCC)C(=O)O ? FALSE

Check the results log: what was the call for Cc1[nH]cnc1-c1ccc(Cl)cc1 ? FALSE

Check the results log: what was the call for CC1(C)OC(=O)Nc2ccc(Br)cc21 ? FALSE

Check the results log: what was the call for Cc1ccccc1N1CCN(CCc2nnc3n2CCCC3)CC1 ? FALSE

Check the results log: what was the call for CN(CC1(C)CCCO1)S(=O)(=O)c1ccc(Cl)c(S(N)(=O)=O)c1 (stereo not drawn) ? FALSE

Check the results log: what was the call for CCN(CC)CC(=O)Nc1c(C)cccc1C(=O)OC ? FALSE

Check the results log: what was the call for CC(=O)OC/C=C(C)/C=C/C=C(C)/C=C/C1=C(C)CCCC1(C)C ? FALSE

Check the results log: what was the call for Cc1cnc(NS(=O)(=O)c2ccc(N)cc2)nc1 ? FALSE

Check the results log: what was the call for CC(C)C[C@@H]1[C@H](c2ccccc2)OC(=O)N1CCCN1CCCCCC1 ? FALSE

Check the results log: what was the call for CCCCC(CC)CNC(=O)CC(C)OC(=O)CCC(=O)O (stereo not drawn) ? FALSE

Check the results log: what was the call for CC(=O)O[C@H]1CC[C@@]2(C)C(=CC[C@@H]3[C@@H]2CC[C@]2(C)C(C(C)=O)=CC[C@@H]32)C1 ? FALSE

Check the results log: what was the call for CC(=O)O[C@@H]1C(=O)O[C@@H]2[C@H]1OC(=O)[C@@H]2OC(C)=O ? FALSE

Check the results log: what was the call for O=C1NC(c2ccccc2)(c2ccccc2)C(=O)N1COP(=O)(O)O ? FALSE

Check the results log: what was the call for Nc1ccc2c(c1)CN1C(=O)c3ccccc3C1=N2 ? TRUE

Check the results log: what was the call for O=C(O)Cn1cnnn1 ? FALSE

Check the results log: what was the call for O=C1Cc2cc(Cl)ccc2N1 ? FALSE

Check the results log: what was the call for C[C@H](N)C(=O)N[C@@H](C)C(=O)NC1[C@H]2CN(c3nc4c(cc3F)c(=O)c(C(=O)O)cn4-c3ccc(F)cc3F)C[C@@H]12 (stereo partly drawn) ? FALSE
